Measured on: baculovirus-expressed ALK (Homo sapiens)
Construct: host or cells: baculovirus expression system
Sequence (Q9UM73 19-1620): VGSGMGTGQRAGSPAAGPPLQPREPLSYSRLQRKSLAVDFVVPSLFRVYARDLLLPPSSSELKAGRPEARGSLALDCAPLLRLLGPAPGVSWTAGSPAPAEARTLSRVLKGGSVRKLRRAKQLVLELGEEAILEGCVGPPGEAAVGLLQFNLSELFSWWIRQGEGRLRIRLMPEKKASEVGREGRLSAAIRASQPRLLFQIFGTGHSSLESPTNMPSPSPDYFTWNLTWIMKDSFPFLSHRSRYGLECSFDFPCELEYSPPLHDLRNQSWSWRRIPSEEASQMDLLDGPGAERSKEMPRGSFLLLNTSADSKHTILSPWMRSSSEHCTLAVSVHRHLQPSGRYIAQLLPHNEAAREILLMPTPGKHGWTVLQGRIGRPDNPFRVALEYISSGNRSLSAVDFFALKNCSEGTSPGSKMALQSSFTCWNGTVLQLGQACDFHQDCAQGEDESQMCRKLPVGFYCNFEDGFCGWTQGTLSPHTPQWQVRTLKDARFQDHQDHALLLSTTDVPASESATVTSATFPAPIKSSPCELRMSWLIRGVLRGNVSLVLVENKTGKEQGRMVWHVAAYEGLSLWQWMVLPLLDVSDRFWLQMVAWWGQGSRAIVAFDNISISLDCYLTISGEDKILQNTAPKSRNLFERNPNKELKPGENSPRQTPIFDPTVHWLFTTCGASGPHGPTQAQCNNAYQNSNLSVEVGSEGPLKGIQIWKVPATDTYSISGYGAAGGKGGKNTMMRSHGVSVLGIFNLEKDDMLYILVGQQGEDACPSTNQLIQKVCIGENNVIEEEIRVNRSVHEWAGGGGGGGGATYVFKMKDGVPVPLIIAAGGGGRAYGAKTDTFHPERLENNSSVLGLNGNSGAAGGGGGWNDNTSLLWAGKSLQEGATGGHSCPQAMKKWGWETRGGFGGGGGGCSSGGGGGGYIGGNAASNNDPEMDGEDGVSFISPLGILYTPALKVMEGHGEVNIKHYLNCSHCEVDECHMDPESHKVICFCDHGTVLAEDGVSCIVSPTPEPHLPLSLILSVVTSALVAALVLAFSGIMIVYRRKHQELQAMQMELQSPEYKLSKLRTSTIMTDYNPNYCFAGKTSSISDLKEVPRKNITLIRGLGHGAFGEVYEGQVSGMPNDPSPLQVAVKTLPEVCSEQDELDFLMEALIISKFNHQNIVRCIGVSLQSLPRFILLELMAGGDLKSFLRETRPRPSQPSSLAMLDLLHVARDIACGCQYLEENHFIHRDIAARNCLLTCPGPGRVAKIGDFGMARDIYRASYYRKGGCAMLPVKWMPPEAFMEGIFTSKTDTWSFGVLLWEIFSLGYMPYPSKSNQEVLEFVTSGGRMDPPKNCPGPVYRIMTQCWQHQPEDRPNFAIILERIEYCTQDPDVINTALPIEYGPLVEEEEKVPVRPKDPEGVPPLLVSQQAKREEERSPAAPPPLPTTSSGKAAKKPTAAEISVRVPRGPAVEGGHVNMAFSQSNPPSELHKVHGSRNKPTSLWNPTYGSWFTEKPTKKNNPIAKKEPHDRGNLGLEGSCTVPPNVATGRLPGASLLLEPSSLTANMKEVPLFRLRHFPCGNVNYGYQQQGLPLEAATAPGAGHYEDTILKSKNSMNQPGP
Assay info: ALK Kinase Assay (ELISA-type, time-resolved fluorescence)
Type: biochemical
Experimental context: 1 μM ATP (Km level), 30 ng/ml ALK, 37° C., 15 minutes; read-out: ALK Activity (ALK kinase inhibition, IC50 class)
pIC50: −log10 of the molar value.
Value type: pIC50

Answered examples (3):
*Q* // pIC50 lookup, key: "COCCN1CCc2cc(Nc3ncc(Cl)c(Nc4ccccc4-n4cccn4)n3)c(OC)cc2CC1"
*A* > 7.00

*Q* Another: "CN1C(=O)CCCc2cc(Nc3ncc(Cl)c(Nc4c(F)cccc4C(=O)NCCC#N)n3)ccc21"
*A* 6.00 to 7.00

*Q* Another: "CCCNC(=O)c1ccccc1Nc1nc(Nc2ccc3c(c2)CCN(CCOC)CC3)ncc1Cl"
*A* > 7.00

// below: pIC50 requested for another compound
*Q* // pIC50 lookup, key: "COCCN1CCc2cc(Nc3ncc(Cl)c(N[C@@H]4[C@H](C(N)=O)[C@H]5C=C[C@@H]4C5)n3)c(OC)cc2CC1"
*A* 5.00 to 6.00

Data origin: patent US8148391B2
